- Measurement target: GlcNAc(b1-2)[GlcNAc(b1-6)]Man(a1-6)[GlcNAc(b1-2)Man(a1-3)]Man(b1-4)GlcNAc(b1-4)[Fuc(a1-6)]GlcNAc
- Protocol description: glycan array binding signal (z-score within array); higher = stronger binding
- Test conditions: glycan notation: IUPAC condensed, linker removed
Many of the other results were omitted from the sample, so the strongest signals are more common in it than they were.
Give measured glycan array binding signal (z-score) for each item. Keep answers brief.
Lab note: write the figure by itself, no unit.

QUERY: Name the reported glycan array binding signal (z-score) value associated with the binder FimA-N3 (Actinomyces oris) (protein) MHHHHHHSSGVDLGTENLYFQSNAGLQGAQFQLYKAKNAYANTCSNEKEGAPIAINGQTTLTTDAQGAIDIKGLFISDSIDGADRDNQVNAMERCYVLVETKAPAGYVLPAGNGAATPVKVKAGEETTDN
RESULT: -0.252

QUERY: Consider next the binder SSR2 (Sclerotium rolfsii) (protein) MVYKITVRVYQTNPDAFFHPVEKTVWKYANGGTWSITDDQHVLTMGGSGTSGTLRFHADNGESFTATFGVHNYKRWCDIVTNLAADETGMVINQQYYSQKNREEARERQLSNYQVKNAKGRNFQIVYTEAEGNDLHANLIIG in the same way.
RESULT: 4.49
